- System: ENR+CD organoids (ISC to Paneth cell differentiation)
- assay.comment: Primary screen: basal (non-stimulated) lysozyme secretion LYZ.NS, 2.5-D 384-well ENR+CD organoid differentiation
- Type: cell-based, mouse
- assay.context: primary screen, standard z score, dose 0.08 uM
Structures can show the parent of a compound that is named as a salt.
Just a reminder that ties go to no: only Z.LYZ.NS strictly below 0.9 counts as yes.

Please review the following examples before continuing.
* Cc1ccc2c(=O)c3cccc(CC(=O)O)c3oc2c1C [DMXAA (Vadimezan)] | yes
* CCOC(=O)c1ccc(NC2CCCCC2)c(N)c1 [Ferrostatin-1 (Fer-1)] | no
* C=C1C(=O)O[C@@H]2/C=C(\C)CC/C=C(\C)CC[C@@H]12 [Costunolide] | no

**Query** Hi there! Is Z.LYZ.NS for COCCCC/C(=N\OCCN)c1ccc(C(F)(F)F)cc1 [Fluvoxamine maleate] below 0.9, do you know?
**Result** yes

**Query** Hi there! Is Z.LYZ.NS for CC(C)n1c(/C=C/C(O)CC(O)CC(=O)O)c(-c2ccc(F)cc2)c2ccccc21 (centres unmarked) [Fluvastatin Sodium] below 0.9, do you know?
**Result** no
